experimental.target: HIV Env, isolate CNE20 (HIV)
test.method.notes: cell-based or functional assay
property: IC80 (µg/ml) with constrains (µg/mL)
Report the figure in µg/mL without appending any unit label.

What measured IC80 (µg/ml) with constrains goes with ePGDM13 (antibody, V domains shown) VH: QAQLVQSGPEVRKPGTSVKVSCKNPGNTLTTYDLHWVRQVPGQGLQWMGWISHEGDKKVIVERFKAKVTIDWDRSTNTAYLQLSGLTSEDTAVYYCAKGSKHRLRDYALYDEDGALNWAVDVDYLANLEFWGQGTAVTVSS VL: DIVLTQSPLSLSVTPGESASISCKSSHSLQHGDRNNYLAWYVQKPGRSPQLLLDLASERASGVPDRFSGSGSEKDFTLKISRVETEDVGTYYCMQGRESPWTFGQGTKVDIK ?
0.015
